- assay.target: KRas G12D mutant (Homo sapiens, UniProt P01116, G12D)
- Construct: fused on or other part: His tag, used for capture on nickel-coated plates
- assay.protocol: Ras GTP binding domain inhibition assay (Cy3-GTP/Cy5-GTP competition)
- conditions: 20 μM; without SOS; read-out: KRas G12D mutant: % inh.
Reported inhibition at 20 µM values for a set of molecules

molecule	inhibition at 20 µM
Cn1ccc(-c2sc3nc(-c4nccn4C)nc(N4CCC5(CCOC5)C4)c3c2-c2ccccc2)n1 (centres unmarked) [drawing 857]	26 to 50%
COCCNc1nc(-c2cn(C)cn2)nc2sc(-c3cc(OC)ccc3Cl)c(-c3ccc(OC)cc3)c12 [drawing 795]	26 to 50%
COc1ccc(-c2sc3nc(-c4nccn4C)nc(N4CCC(OC)C4)c3c2-c2ccccc2)cn1.Cl (centres unmarked)	26 to 50%
COC1CCN(c2nc(-c3nccn3C)nc3sc(-c4ccccc4Cl)c(-c4cscn4)c23)C1 (centres unmarked) [drawing 849]	51 to 75%
COCCNc1nc(-c2cn(C)cn2)nc2sc(-c3ccccc3Cl)c(-c3ccc(OC)cc3)c12 [drawing 873]	26 to 50%
O=C(NC1CCCC1)c1nc(-c2ccccn2)nc(O)c1O [drawing 812]	51 to 75%
Oc1nc(-c2ncc3ccccn23)nc2c(-c3ccccn3)csc12 [drawing 834]	76 to 100%
CO[C@H]1CCC(Nc2nc(-c3nccn3C)nc3sc(-c4ccn(C)n4)c(-c4ccccc4)c23)C1 (some centres unmarked) [drawing 860]	26 to 50%

====

- assay.target: KRas G12D mutant (Homo sapiens, UniProt P01116, G12D)
- Construct: fused on or other part: His tag, used for capture on nickel-coated plates
- assay.protocol: Ras GTP binding domain inhibition assay (Cy3-GTP/Cy5-GTP competition)
- conditions: 20 μM; without SOS; read-out: KRas G12D mutant: % inh.
Reported inhibition at 20 µM values for a set of compounds
test.readout: inhibition at 20 µM

compound	recorded.value
COc1cccc(-c2sc3nc(-c4nccn4C)nc(N4CCC(OC)C4)c3c2-c2cscn2)c1 (centres unmarked) [drawing 867]	1 to 25%
COc1c(O)nc(-c2ccccn2)nc1Oc1cccnc1 [drawing 802]	51 to 75%
Cn1ccnc1-c1nc(O)c(O)c(C(=O)N2CCCC2)n1 [drawing 828]	26 to 50%
COc1cccc(Cn2ccnc2-c2nc(O)c3scc(-c4ccccn4)c3n2)c1 [drawing 850]	76 to 100%
COCCNc1nc(-c2nccn2C)nc2sc(-c3cccc(OC)c3)c(-c3ccc(OC)cc3)c12 [drawing 875]	51 to 75%
COCCNc1nc(-c2nccn2C)nc2sc(-c3cc(OC)ccc3Cl)c(-c3ccc(OC)cc3)c12 [drawing 877]	1 to 25%
COCCNc1nc(-c2nccn2C)nc2sc(-c3cc(OC)ccc3Cl)c(-c3ccccc3)c12 [drawing 871]	26 to 50%
COCCCN(C)c1nc(-c2nccn2C)nc2sc(-c3ccn(C)n3)c(-c3ccccc3)c12 [drawing 865]	51 to 75%

====

- System: KRas Q61H mutant
- assay.protocol: Ras GTP binding domain inhibition assay (Cy3-GTP/Cy5-GTP competition)
- Design: species or system human
- conditions: 20 μM; without SOS (Table 7A)
- Source text: The following method was developed as specific assay for the following proteins: KRas wild type, KRas Q61H mutant, KRas G12C mutant, KRas G12D mutant, HRas wild type, Rac-1, and Rho-A. […] The small GTPases proteins: KRas wild type. KRas Q61H mutant, KRas G12C mutant, KRas G12D mutants, HRas wild type, Rac-1, and Rho-A were expressed as His-tagged proteins. In addition, the Guanosine nucleotide Exchange Factor (GEF) Sos protein (residues 556-1049) was expressed as a His-tagged protein. […]
test.readout: KRas Q61H mutant: % inh.

molecule	test.readout	recorded.value
CCOc1cccc(Nc2nc(-c3ccccn3)nc(O)c2OC)c1 [drawing 882]	KRas Q61H mutant: % inh.	C (51-75% inhibition)
Cc1c(-c2ccn(C)n2)sc2nc(-c3nccn3C)nc(NCCCC(=O)N(C)C)c12 [drawing 917]	KRas Q61H mutant: % inh.	D (76-100% inhibition)
CO[C@H]1C[C@H](Nc2nc(-c3nccn3C)nc3sc(-c4ccn(C)n4)c(-c4ccccc4)c23)C1 [drawing 906]	KRas Q61H mutant: % inh.	C (51-75% inhibition)
CO[C@H]1C[C@@H](Nc2nc(-c3nccn3C)nc3sc(-c4ccn(C)n4)c(-c4ccccc4)c23)C1.Cl	KRas Q61H mutant: % inh.	C (51-75% inhibition)
Cc1c(-c2ccn(C)n2)sc2nc(-c3nccn3C)nc(NCCCS(C)(=O)=O)c12 [drawing 916]	KRas Q61H mutant: % inh.	D (76-100% inhibition)
COc1c(O)nc(-c2ccccn2)nc1Nc1ccccc1 [drawing 880]	KRas Q61H mutant: % inh.	C (51-75% inhibition)
CO[C@H]1CC[C@@H](Nc2nc(-c3nccn3C)nc3sc(-c4ccn(C)n4)c(C)c23)C1 [drawing 915]	KRas Q61H mutant: % inh.	C (51-75% inhibition)
COc1cccc(-c2sc3nc(-c4nc(C)cn4C)nc(N[C@@H]4CC[C@H](OC)C4)c3c2C)c1F [drawing 896]	KRas Q61H mutant: % inh.	A (1-25% inhibition)
CO[C@H]1CC[C@@H](Nc2nc(-c3nccn3C)nc3sc(-c4cccc5[nH]ncc45)c(-c4ccccc4)c23)C1 [drawing 889]	KRas Q61H mutant: % inh.	C (51-75% inhibition)
COCCNC(=O)c1sc2nc(-c3nccn3C)nc(N[C@H]3C[C@@H](OC)C3)c2c1-c1ccccc1 [drawing 921]	KRas Q61H mutant: % inh.	D (76-100% inhibition)
CO[C@H]1CC[C@@H](Nc2nc(-c3nccn3C)nc3sc(C(=O)N4CCOCC4)c(-c4ccccc4)c23)C1 [drawing 927]	KRas Q61H mutant: % inh.	D (76-100% inhibition)
COc1cccc(-c2sc3nc(-c4nccn4C)nc(NC4CCC(OC)C4)c3c2-c2ccccc2)c1F (centres unmarked) [drawing 883]	KRas Q61H mutant: % inh.	C (51-75% inhibition)
Cn1ccc(-c2sc3nc(-c4nccn4C)nc(N[C@@H]4CC[C@H](O)C4)c3c2-c2ccccc2)n1 (racemic) [drawing 909]	KRas Q61H mutant: % inh.	A (1-25% inhibition)
COc1c(F)cccc1-c1sc2nc(-c3nccn3C)nc(NC3CCC(OC)C3)c2c1-c1ccccc1 (centres unmarked) [drawing 886]	KRas Q61H mutant: % inh.	A (1-25% inhibition)
COC1CCC(Nc2nc(-c3nccn3C)nc3sc(-c4cccc(O)c4F)c(-c4ccccc4)c23)C1 (centres unmarked) [drawing 885]	KRas Q61H mutant: % inh.	B (26-50% inhibition)
CO[C@H]1CC[C@@H](Nc2nc(-c3nccn3C)nc3sc(C(=O)N4CCCC4)c(-c4ccccc4)c23)C1 [drawing 926]	KRas Q61H mutant: % inh.	D (76-100% inhibition)
COc1c(O)nc(-c2ccccn2)nc1Oc1ccc(C(=O)N(C)C)cc1 [drawing 879]	KRas Q61H mutant: % inh.	B (26-50% inhibition)
